Entries and their cAMP EC50 values follow.
- study-target: human MC3R (human, UniProt P41968 1-323)
- Sequence (P41968 whole entry): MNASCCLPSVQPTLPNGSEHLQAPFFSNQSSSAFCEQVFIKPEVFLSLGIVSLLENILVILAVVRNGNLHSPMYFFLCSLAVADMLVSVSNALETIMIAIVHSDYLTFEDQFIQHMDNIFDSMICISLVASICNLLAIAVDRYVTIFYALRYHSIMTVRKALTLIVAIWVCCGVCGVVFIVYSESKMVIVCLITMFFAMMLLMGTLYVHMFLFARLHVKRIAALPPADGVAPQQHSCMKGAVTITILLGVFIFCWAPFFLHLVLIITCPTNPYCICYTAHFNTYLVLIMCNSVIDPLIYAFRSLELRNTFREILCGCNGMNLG
- assay-text: cell-based or functional assay
Starred links: 1 amine or outer side, 2 acyl side, 3 side chain; linkers in the order of their positions; H or OH if unused. Positions of bridges follow the written chain, without caps; N, C: chain ends. Non-standard residues stand in square brackets, D forms with d. dTyr(4-OMe) = O-methyl-D-tyrosine (4-OMe), COc1ccc(C[C@@H](N[*:1])C(=O)[*:2])cc1; Nle = CCCC[C@H](N)C(=O)O; Aib = CC(C)(N)C(=O)O
Value expressed in nM; do not type the unit.

# example entries with known answers
binder	test-value
Ac-C[Aib]R[dF]RWC-NH2 (disulfide 1-7; SMILES CC(=O)N[C@H]1CSSC[C@@H](C(N)=O)NC(=O)[C@H](Cc2c[nH]c3ccccc23)NC(=O)[C@H](CCCNC(=N)N)NC(=O)[C@@H](Cc2ccccc2)NC(=O)[C@H](CCCNC(=N)N)NC(=O)C(C)(C)NC1=O) [CTX-1632]	19
Ac-R[Nle]CR[dF]RFC-NH2 (disulfide 3-8; SMILES CCCC[C@H](NC(=O)[C@H](CCCNC(=N)N)NC(C)=O)C(=O)N[C@H]1CSSC[C@@H](C(N)=O)NC(=O)[C@H](Cc2ccccc2)NC(=O)[C@H](CCCNC(=N)N)NC(=O)[C@@H](Cc2ccccc2)NC(=O)[C@H](CCCNC(=N)N)NC1=O) [CTX-1622]	13

Now look at this one.
Req: Please indicate cAMP EC50 recorded for Ac-R[Nle]CR[dTyr(4-OMe)]RFC-NH2 (disulfide 3-8; SMILES CCCC[C@H](NC(=O)[C@H](CCCNC(=N)N)NC(C)=O)C(=O)N[C@H]1CSSC[C@@H](C(N)=O)NC(=O)[C@H](Cc2ccccc2)NC(=O)[C@H](CCCNC(=N)N)NC(=O)[C@@H](Cc2ccc(OC)cc2)NC(=O)[C@H](CCCNC(=N)N)NC1=O) [CTX-1624]
Resp: 5.6
